- Tested on: MS2 coat protein
- ASSAY DETAILS: apparent KD of MS2 coat protein; designed switch direction (-1 OFF switch, 1 ON switch): -1; higher = weaker reporter binding
- ASSAY SETUP: input ligand: none
READOUT NAME: apparent KD of MS2 coat protein (nM)
Lab book: enter the figure in nM, no units written.

| MONOMER SEQUENCE | QUANTITY UNIT | apparent KD of MS2 coat protein |
| --- | --- | --- |
| AAUGUGUAAGGAUAUCCGAAAAGCGAGCGAAAGCGAGCGAAGGAGAAGGUACAUGAGGAUCACCCAUGUAAGGG [AK-MS2ROC-r4-exclusion4-11.6] (Eterna round: R97, puzzle: Exclusion 4) | nM | 530 |

Please fill in: apparent KD of MS2 coat protein reported for CAGUACUGAGGAUAUACAUGAGGAUCACCCAUGUAAUAAUCGUAGGAAACUACGAUAUGUAGAAGGCAGUACUG [Eli x3 4.04] (Eterna round: R97, puzzle: Exclusion 3) = 13.1

apparent KD of MS2 coat protein recorded for this sequence, CUCGCAUUAGGAUAUACAUGAGGAUCACCCAUGUAUAAACCCAGGGUCAACGCCAUAUGUAGAAGGAGUAGCGA [Eternabot (L1) Solution 59] (Eterna round: R97, puzzle: Exclusion 3) , is 17

Quick note, apparent KD of MS2 coat protein for UAACAUCUGAUUCUUGAGAUACAUGAGGAUCACCCAUGUUCACAGGAUAUUGAUUUUAAGAAAAGCAAGAAGGGUGAAUCAUUU [JR_ExcNG3_Sub042] (Eterna round: R96, puzzle: Exclusion NG 3) landed at 20.7

Reported apparent KD of MS2 coat protein for AUGUUGCGAGGAUAUAUAAGGGUAUAUUCAUAAGAUAUGGAACAUGAGGAUCACCCAUGUAGAAGGUGCAUAAC [JR_Ex2_Sub042] (Eterna round: R97, puzzle: Exclusion 2) was 46.2

Looking up GCAAGACAUGAGGAUCACCCAUGUGAGGAUAUUGCUCGACACCUGCGCGAAGAGUCGAUAAGAAGGUACAGGGU [Eternabot (L2) Solution 90] (Eterna round: R97, puzzle: Exclusion 1) , I see its apparent KD of MS2 coat protein listed as 52.6

* * *

- Test system: K4 kissing-loop RNA reporter;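 note: bound reporter read as fluorescence of individual clusters on recovered sequencing chips by microscopy, with normalized cluster intensities fitted with a binding model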
- ASSAY DETAILS: apparent KD of K4 kissing-loop reporter; higher = weaker reporter binding
- ASSAY SETUP: Eterna round: R107; input ligand: tryptophan 2.4 mM
Listed here are sequences together with their documented apparent KD of K4 kissing-loop reporter.
Kindly provide the numeric value in nM only, without the unit symbol.

| MONOMER SEQUENCE | READOUT NAME | QUANTITY UNIT | RECORDED MEASUREMENT |
| --- | --- | --- | --- |
| AACUGUCAAGGCCGACAUUACUGAGGUGAUACCAGCAUCGAAAGAUGCCCUUGGCAGCACCAACUUGCAGUGAUGUUGCAAGUAA [BrourdMod 14 - Jieux - Exclusion - Theophylline A] | apparent KD of K4 kissing-loop reporter | nM | 184 |
| AGUGCACUGUCAGGAUAUAUACAGUGAUGUUGUGUAUGUCAGCAAGUCAAAGACUUGCUAUUUUGUGUAGAAGGGACUGUGUACA [whbob_Ex_FMNB__2th221] | apparent KD of K4 kissing-loop reporter | nM | 177 |
| AAACAUUGGUCUGAUACCAGCUUGAUCGGUAAACGAUCUACUGGAGUGAUGUUCCUAAAUAGCCCUUGGCAGCAGACCGAUGAAA [MAT - Same State Theophlline B - Mod of Eli - D6] | apparent KD of K4 kissing-loop reporter | nM | 181 |

For GAAGUACAGGCGGCCGCCACUAGUGAUGUUAGUGAUAAAAGAUAUAGUAAAUAUCGGCAUGUAGAUAGGACCGGGCCUGAUGGAG [ggbgmullin] the sequence record lists apparent KD of K4 kissing-loop reporter as 226

AAAUGCAGCAAACGAGUGAUGUUCGACGAUACCAGCCUCGAUAGAGGCCCUUGGCAGCGUACAUCAAAGCCAAGGGCUGCUAAAA [#SwitchBubble 3] has a reported apparent KD of K4 kissing-loop reporter of 454
